Reported PMN oxid (-log EC50) by item:
Test system: human neutrophils
measurementProtocol: Human neutrophil oxidative activity, luminol-enhanced chemiluminescence
Format: cell-based
conditionSet: human neutrophil experiment w/o Rolipram
Number, no unit, nothing else.

Here is how some compounds turned out for PMN oxid (-log EC50).
CCNC(=O)[C@H]1O[C@@H](n2cnc3c(N)nc(C#CCC4CCC(C)(C(=O)OC)CC4)nc32)C(O)C1O (single isomer, unassigned) [JR-3067B]    6.83
CC(=O)OCC1CCC(CC#Cc2nc(N)c3ncn(C4OC(CO)C(O)C4O)c3n2)CC1 (stereo not drawn)    7.13

With those in mind, consider the next compound.
Looking up COC(=O)C1CCC(CC#Cc2nc(N)c3ncn(C4OC(CO)C(O)C4O)c3n2)CC1 (stereo not drawn) , I see its PMN oxid (-log EC50) listed as 7.19

---

experimentalTarget: A3 AR (Homo sapiens)
Sequence (P0DMS8 1-318): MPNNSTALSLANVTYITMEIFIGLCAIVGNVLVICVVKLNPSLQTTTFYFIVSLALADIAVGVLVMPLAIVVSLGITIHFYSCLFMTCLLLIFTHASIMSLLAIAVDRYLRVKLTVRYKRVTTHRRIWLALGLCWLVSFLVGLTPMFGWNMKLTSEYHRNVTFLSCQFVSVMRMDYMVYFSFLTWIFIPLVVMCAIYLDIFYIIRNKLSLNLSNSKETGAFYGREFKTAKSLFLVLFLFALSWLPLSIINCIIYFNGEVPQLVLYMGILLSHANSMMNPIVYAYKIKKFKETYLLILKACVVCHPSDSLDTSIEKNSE
measurementProtocol: Radioligand competition binding (125I-ABA) to human A3 AR in HEK 293 cell membranes
conditionSet: A3 ± SEM, Ki from competition binding, 125I-ABA, HEK 293 cell membranes
measure: log10 Ki (log10 of the value in nM)
On a log10 scale: recorded Ki, unit nM.

Previously resolved entries follow.
CCNC(=O)[C@H]1O[C@@H](n2cnc3c(N)nc(C#CCC4CCN(C(=O)OCC)CC4)nc32)C(O)C1O (stereo in doubt) [JR-3269]    1.84
CCNC(=O)[C@H]1O[C@@H](n2cnc3c(N)nc(C#CC4(O)CCCCC4C)nc32)C(O)C1O (single isomer, unassigned) [JR-3177B]    0.88
CCNC(=O)[C@H]1O[C@@H](n2cnc3c(N)nc(C#CC4(O)CC(C)(C)CC(C)(C)C4)nc32)C(O)C1O (stereo in doubt) [JR-3163]    2.18

Lab note: measured log10 Ki of CCNC(=O)[C@H]1O[C@@H](n2cnc3c(N)nc(C#CC4(O)CCCC(C)C4)nc32)C(O)C1O (stereo partly drawn) [JR-3179] was 1.10

Item: CCNC(=O)[C@H]1O[C@@H](n2cnc3c(N)nc(C#CC4(O)CCCCC4C)nc32)C(O)C1O (single isomer, unassigned) [JR-3177A] | log10 Ki: 0.83

Consider CCNC(=O)[C@H]1O[C@@H](n2cnc3c(N)nc(C#CCC4CCN(C(=O)OC(C)(C)C)CC4)nc32)C(O)C1O (stereo in doubt) [JR-3259] . Its measured log10 Ki is 1.66

---

experimentalTarget: recombinant human A2A receptors (Homo sapiens)
Sequence (P29274 whole entry): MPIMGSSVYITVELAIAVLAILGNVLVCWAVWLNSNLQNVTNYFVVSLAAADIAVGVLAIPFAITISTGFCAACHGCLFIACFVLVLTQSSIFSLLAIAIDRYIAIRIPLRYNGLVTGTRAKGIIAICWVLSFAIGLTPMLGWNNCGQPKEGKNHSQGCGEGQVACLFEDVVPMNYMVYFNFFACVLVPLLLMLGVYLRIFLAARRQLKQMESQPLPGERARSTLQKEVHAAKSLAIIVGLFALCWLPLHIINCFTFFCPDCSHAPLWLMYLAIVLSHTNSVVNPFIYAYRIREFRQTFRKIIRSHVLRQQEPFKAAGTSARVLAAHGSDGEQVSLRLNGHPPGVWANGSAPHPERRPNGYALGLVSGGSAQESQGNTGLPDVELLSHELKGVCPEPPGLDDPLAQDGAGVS
measurementProtocol: Radioligand competition binding to recombinant human A2A receptors in Sf9 cell membranes
conditionSet: A2A ± SEM, Ki from competition binding, Sf9 cell membranes
Listing of recorded log10 Ki by entry.
Note: values are log10 of Ki expressed in nM.

Some entries whose results are on file:
CCNC(=O)[C@H]1O[C@@H](n2cnc3c(N)nc(C#CC4(O)CCC(CC)CC4)nc32)C(O)C1O (stereo in doubt)    -0.30
CCNC(=O)[C@H]1O[C@@H](n2cnc3c(N)nc(C#CC4(O)CCC(c5ccccc5)CC4)nc32)C(O)C1O (stereo in doubt)    -0.05
CCNC(=O)[C@H]1O[C@@H](n2cnc3c(N)nc(C#CCC4CCC(C)(C(=O)OC)CC4)nc32)C(O)C1O (single isomer, unassigned) [JR-3067A]    0.11

The measured log10 Ki associated with CCNC(=O)[C@H]1O[C@@H](n2cnc3c(N)nc(C#CC4(O)CC(C)(C)CC(C)(C)C4)nc32)C(O)C1O (stereo in doubt) reads 1.05

The measured log10 Ki associated with CCNC(=O)[C@H]1O[C@@H](n2cnc3c(N)nc(C#CC[C@H]4CC[C@H](COC(=O)OCc5ccccc5)CC4)nc32)C(O)C1O (some centres unmarked) reads 0.43

Memo: CCNC(=O)[C@H]1O[C@@H](n2cnc3c(N)nc(C#CC4(O)CCC(C(C)(C)C)CC4)nc32)C(O)C1O (stereo in doubt) , reported log10 Ki: 0.18

Per the record, CCNC(=O)[C@H]1O[C@@H](n2cnc3c(N)nc(C#CC4(O)CCCC(C)(C)C4)nc32)C(O)C1O (stereo in doubt) [JR-3201B] has log10 Ki of 0.20

// field: log10 Ki; key: CCNC(=O)[C@H]1O[C@@H](n2cnc3c(N)nc(C#CCC4CCC(C(=O)OCCN)CC4)nc32)C(O)C1O (stereo in doubt) ; value = 0.20

Given item CCNC(=O)C1CCC(CC#Cc2nc(N)c3ncn([C@@H]4O[C@H](C(=O)NCC)C(O)C4O)c3n2)CC1 (stereo in doubt) , the value recorded as its log10 Ki is 0.61

# compound CCNC(=O)[C@H]1O[C@@H](n2cnc3c(N)nc(C#CC4(O)CCCCNC4=O)nc32)C(O)C1O (single isomer, unassigned) [JR-3243B] ; its log10 Ki = 0.35

Memo: CCNC(=O)[C@H]1O[C@@H](n2cnc3c(N)nc(C#CCN4CCN(C(=O)OCC)CC4)nc32)C(O)C1O (stereo in doubt) , reported log10 Ki: 0.28

---

experimentalTarget: A3 AR (Homo sapiens, UniProt P0DMS8)
Sequence (P0DMS8 1-318): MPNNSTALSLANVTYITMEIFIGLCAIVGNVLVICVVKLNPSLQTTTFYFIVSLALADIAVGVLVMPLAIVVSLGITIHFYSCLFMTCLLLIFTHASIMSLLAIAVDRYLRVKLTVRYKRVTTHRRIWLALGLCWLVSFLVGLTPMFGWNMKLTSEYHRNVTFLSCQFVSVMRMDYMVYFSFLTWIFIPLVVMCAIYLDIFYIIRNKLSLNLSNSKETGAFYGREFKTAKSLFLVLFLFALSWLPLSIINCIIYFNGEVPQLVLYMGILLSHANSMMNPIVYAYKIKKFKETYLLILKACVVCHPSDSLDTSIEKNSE
measurementProtocol: Radioligand competition binding (125I-ABA) to human A3 AR in HEK 293 cell membranes
conditionSet: selectivity ratio A3 over A2A
measure: A3/A2A
Respond with the number and no other words.

Take a look at these entries with their results.
CCNC(=O)C1OC(n2cnc3c(N)nc(C#CC(O)C4CCCCC4)nc32)C(O)C1O (single isomer, unassigned) [JR-3159A]    6.6
CCNC(=O)[C@H]1O[C@@H](n2cnc3c(N)nc(C#CC4(O)CCC(c5ccccc5)CC4)nc32)C(O)C1O (stereo in doubt) [JR-3161]    127.0
CCNC(=O)[C@H]1O[C@@H](n2cnc3c(N)nc(C#CCC4CCC(CN(C)C)CC4)nc32)C(O)C1O (stereo in doubt) [JR-3023]    16.3
CCNC(=O)[C@H]1O[C@@H](n2cnc3c(N)nc(C#CC4(O)CC(C)(C)CC(C)(C)C4)nc32)C(O)C1O (stereo in doubt) [JR-3163]    13.7

Now examine the next entry.
A3/A2A measured on CCNC(=O)[C@H]1O[C@@H](n2cnc3c(N)nc(C#CCC4CCN(C(=O)OC(C)(C)C)CC4)nc32)C(O)C1O (stereo in doubt) [JR-3259] = 50.7

---

experimentalTarget: human A1 AR (Homo sapiens, UniProt P30542)
Sequence (P30542 whole entry): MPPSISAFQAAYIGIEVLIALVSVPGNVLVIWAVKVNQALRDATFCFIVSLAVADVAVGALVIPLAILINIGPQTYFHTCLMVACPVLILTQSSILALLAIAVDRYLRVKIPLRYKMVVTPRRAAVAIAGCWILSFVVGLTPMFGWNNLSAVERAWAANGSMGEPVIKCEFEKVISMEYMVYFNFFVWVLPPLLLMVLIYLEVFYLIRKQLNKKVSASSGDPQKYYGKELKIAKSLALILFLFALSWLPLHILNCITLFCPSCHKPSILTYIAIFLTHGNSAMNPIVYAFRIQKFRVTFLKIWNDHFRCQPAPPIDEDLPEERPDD
measurementProtocol: Radioligand competition binding (125I-ABA) to human A1 AR in CHO K1 cell membranes
conditionSet: selectivity ratio A1 over A2A
measure: A1/A2A
// no unit string in output, number only

CCNC(=O)[C@H]1O[C@@H](n2cnc3c(N)nc(C#CC4(O)CCCCNC4=O)nc32)C(O)C1O (single isomer, unassigned) [JR-3243B]    5.3
CCNC(=O)[C@H]1O[C@@H](n2cnc3c(N)nc(C#CCC4CCC(C(=O)OCCNC(=O)OC(C)(C)C)CC4)nc32)C(O)C1O (stereo in doubt) [JR-3021]    66.9

The compound listed as CCNC(=O)C1OC(n2cnc3c(N)nc(C#CC(O)C4CCCCC4)nc32)C(O)C1O (single isomer, unassigned) [JR-3159A] shows A1/A2A equal to 1.4

Lookup result for CCNC(=O)[C@H]1O[C@@H](n2cnc3c(N)nc(C#CC4(O)CCCCC4C(C)(C)C)nc32)C(O)C1O (stereo in doubt) [JR-3227] ; measured A1/A2A: 21.4

Notebook: CCNC(=O)[C@H]1O[C@@H](n2cnc3c(N)nc(C#CC4(O)CCCC(C)(C)C4)nc32)C(O)C1O (stereo in doubt) [JR-3201B] , A1/A2A read as 98.1

// sample CCNC(=O)[C@H]1O[C@@H](n2cnc3c(N)nc(C#CCC4CCN(C(=O)OCC)CC4)nc32)C(O)C1O (stereo in doubt) [JR-3269] , its A1/A2A was 106.0

Per the records, this compound ( CCNC(=O)[C@H]1O[C@@H](n2cnc3c(N)nc(C#CCC4CCC(CN(C)C)CC4)nc32)C(O)C1O (stereo in doubt) [JR-3023] ) has A1/A2A equal to 3.7
